Reported IC50 values for a set of compounds
biological target: DGKα (Homo sapiens (Human), UniProt P23743); assay: In vitro DGKα inhibition assay (ADP-Glo); conditions: His-tagged human recombinant enzyme, 0.1 nM DGKα, 50 μM ATP, 20 μM DLG, 90 minute incubation
Sequence (P23743 whole entry): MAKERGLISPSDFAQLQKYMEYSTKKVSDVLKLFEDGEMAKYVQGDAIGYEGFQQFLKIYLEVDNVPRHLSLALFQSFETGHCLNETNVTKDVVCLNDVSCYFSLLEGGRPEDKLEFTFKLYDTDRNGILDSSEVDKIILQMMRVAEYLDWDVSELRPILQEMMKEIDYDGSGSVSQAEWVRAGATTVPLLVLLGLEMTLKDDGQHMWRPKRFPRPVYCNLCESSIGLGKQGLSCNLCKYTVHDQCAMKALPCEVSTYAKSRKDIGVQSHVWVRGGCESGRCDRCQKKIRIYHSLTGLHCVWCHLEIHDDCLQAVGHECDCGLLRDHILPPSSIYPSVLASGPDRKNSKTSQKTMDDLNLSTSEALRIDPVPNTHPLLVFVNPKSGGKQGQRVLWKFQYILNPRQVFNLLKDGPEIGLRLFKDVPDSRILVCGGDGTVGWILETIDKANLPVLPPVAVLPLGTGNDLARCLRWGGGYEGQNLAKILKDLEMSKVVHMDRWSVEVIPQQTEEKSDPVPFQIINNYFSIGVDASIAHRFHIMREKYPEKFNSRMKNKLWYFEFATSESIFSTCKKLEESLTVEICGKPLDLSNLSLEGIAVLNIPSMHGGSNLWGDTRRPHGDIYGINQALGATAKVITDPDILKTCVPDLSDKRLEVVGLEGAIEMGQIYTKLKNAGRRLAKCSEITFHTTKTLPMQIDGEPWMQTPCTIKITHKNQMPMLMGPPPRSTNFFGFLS

Look over these answered cases.
C[C@@H]1CN(c2nc3nncn3c3c2nnn3C[C@H]2CCCO2)[C@@H](C)CN1C(c1ccc(F)cc1)c1ccc(F)cc1 [Example 29]
≤ 20 nM
Cc1nc2c(N3C[C@@H](C)N([C@H](c4ccc(OC(F)F)cc4)C(C)C)C[C@@H]3C)nc3nncn3c2n1C[C@@H]1CCCO1 [Example 79]
≤ 20 nM

# next compound below
Incoming: Give reported IC50 value for COc1cccc([C@H](C(C)C)N2C[C@H](C)N(c3nc4nncn4c4c3nc(C)n4C[C@@H]3CCCO3)C[C@H]2C)c1 [Example 98]
Outgoing: ≤ 20 nM
